- EXPERIMENT: yeast display, Sf9 membrane polyspecificity reagent, FACS + sequencing; frameworks hold sequencing errors
QUANTITY KIND: polyreactivity (PSR sort gate)

Worked set:
What does the record list as polyreactivity (PSR sort gate) for QVQLVESGGGLVQAGGSLRLSCAASGSTIVVNAMGWYRQAPGKERELVAAISSNGGSYYADSVKGRFTISRDNAKNTVYLQMNSLKPEDTAVYYCAADSREEGDYWGQGTQVTVSS ?
low polyreactivity

What does the record list as polyreactivity (PSR sort gate) for QVQLVESGGGLVQAGGSLRLSCAASGSTFVGYAMGWYRQAPGKERELVAAITTDGGSTYYADSVKVRFTISRDNAKNTVYLQMNSLKPEDTAVYYCAADHRVYPRDDWDSPDEFGYWGQGTQVTVSS ?
low polyreactivity

What does the record list as polyreactivity (PSR sort gate) for QVQLQESGGGLVQEGGSLRLRCAASRNISGSSDLGWYHQAPGKEREFVASITSGGTTYYADSVKGRFTISRDNAKNTVYLQMNSLKPEDTAVYYCAVGDPADAEFGYWGQGTQVTVSS ?
low polyreactivity

What does the record list as polyreactivity (PSR sort gate) for QVQLVESGGGLVQAGGSLRLSCAASGFTFDDYAMGWYRQAPGKERELVAAIDDDSSTNYADSVKGRFTISRDNAKNTVYLQMNSLKPEDTAVYYCNARARVSGKWYNYWGQGTQVTVSS ?
high polyreactivity

Next:
What does the record list as polyreactivity (PSR sort gate) for QVQLVESGGRLVQAGGSLRLSCAASGRTFRAYVMGWYRQSPGKERELVAAISSSGGRTYYADSVKGRFTISRDNAKNTVYLQMNSLKPEDTAVYYCAAQAVRGGIGEDDYWGQGTQVTVSS ?
high polyreactivity
